Origin of values: paper PMC12864922

Each entry below carries its recorded binding signal.
target: TDP-43 (Homo sapiens, UniProt Q13148 1-414); assay: RNA Bind-n-Seq with designed 260-mer pool; 25 mM Tris-HCl, 150 mM KCl, 3 mM MgCl2, BSA (printed 500 mg/mL), 20 units/mL SUPERase IN; pH not stated; 500 nM RNA pool, 1 h, 4 C; TDP-43 5, 50, 500 nM; high values mean tight binding; settings: protein: recombinant; tags: SBP (GST cleaved off with PreScission; pGEX-GST-SBP)
Sequence (Q13148 whole entry): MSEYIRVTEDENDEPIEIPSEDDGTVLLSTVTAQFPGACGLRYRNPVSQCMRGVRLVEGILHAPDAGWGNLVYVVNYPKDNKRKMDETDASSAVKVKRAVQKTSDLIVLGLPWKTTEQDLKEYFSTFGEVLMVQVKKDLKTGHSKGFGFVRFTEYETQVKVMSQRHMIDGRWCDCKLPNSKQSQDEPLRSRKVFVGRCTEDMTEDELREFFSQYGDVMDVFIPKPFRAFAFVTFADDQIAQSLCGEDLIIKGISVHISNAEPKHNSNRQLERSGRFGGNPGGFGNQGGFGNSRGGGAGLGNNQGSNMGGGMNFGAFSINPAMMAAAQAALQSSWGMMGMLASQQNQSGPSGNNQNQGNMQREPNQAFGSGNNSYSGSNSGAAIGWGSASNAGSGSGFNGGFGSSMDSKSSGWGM
Whole data set: some 9,900 sequences, median “r (bound/input frequency ratio)” near 0.7, cut for the highest 2% near 6.5. The sample holds the highest values, similar sequences and a random draw of the others, so the mix is not that of the screen.

Before answering, review these 3 worked examples.
- binder: "ENSMUSG00000058297.15|Spock2 (ssRNA) RNA: GGGAGUUCUACAGUCCGACGAUCGCUUCGAUAUCCGCAUGCUAAGGCUACAUCUGGUAGAUAGCCCUCGACGGCCUCGGCAGGCCAGGGUGCCGACGGCCAGAAAGACAGGCCAGAAGAGACCUGGACAACAGCAGGCAACUUAGCAAAUGGAUCCGGAAGUCAGUGCGGAGGACCCUGGCUCCAGUGGGGGAGGACUGGGGAGUGUGGCUUGUGUGUAUGUGUGAUAUGAGAUGUGUGUGUAUGAUGUGAGAUGUGAGUGUGUGAUGUGAGAUGUGUGUAUGUGAGAUGUGUGUGUGUGUGUCUCUUGCGGUCGCACUAGUGUGGAAUUCUCGGGUGUCAAGG"
  recorded.value: "7.97 R (bound/input frequency ratio)"
- binder: "ENSMUSG00000058297.14|Spock2 (ssRNA) RNA: GGGAGUUCUACAGUCCGACGAUCGCUUCGAUAUCCGCAUGCUAUGAUGGAGGCUACAUCUGGUAGAUAGCCCUCGACGGCCUCGGCAGGCCAGGGUGCCGACGGCCAGAAAGACAGGCCAGAAGAGACCUGGACAACAGCAGGCAACUUAGCAAAUGGAUCCGGAAGUCAGUGCGGAGGACCCUGGCUCCAGUGGGGGAGGACUGGGGAGUGUGGCUUGUGUGUAUGUGUGAUAUGAGAUGUGUGUGUAUGAUGUGAGAUGUGAGUGUGUGAUGUGAGAUGUGUGUAUGUGAGAUGUGUGUGUCUCUUGCGGUCGCACUAGUGUGGAAUUCUCGGGUGUCAAGG"
  recorded.value: "8.13 R (bound/input frequency ratio)"
- binder: "ENSMUSG00000058297.16|Spock2 (ssRNA) RNA: GGGAGUUCUACAGUCCGACGAUCGCUUCGAUAUCCGCAUGCUACAUCUGGUAGAUAGCCCUCGACGGCCUCGGCAGGCCAGGGUGCCGACGGCCAGAAAGACAGGCCAGAAGAGACCUGGACAACAGCAGGCAACUUAGCAAAUGGAUCCGGAAGUCAGUGCGGAGGACCCUGGCUCCAGUGGGGGAGGACUGGGGAGUGUGGCUUGUGUGUAUGUGUGAUAUGAGAUGUGUGUGUAUGAUGUGAGAUGUGAGUGUGUGAUGUGAGAUGUGUGUAUGUGAGAUGUGUGUGUGUGUGUGUGUGUCUCUUGCGGUCGCACUAGUGUGGAAUUCUCGGGUGUCAAGG"
  recorded.value: "7.85 R (bound/input frequency ratio)"

Now turn to the next binder.
*Q* Fill in: binding signal of ENSMUSG00000058297.16|Spock2|155:159;163:176;185:196;210:216;225:234;240:260 (ssRNA) RNA: GGGAGUUCUACAGUCCGACGAUCGCUUCGAUAUCCGCAUGCUACAUCUGGUAGAUAGCCCUCGACGGCCUCGGCAGGCCAGGGUGCCGACGGCCAGAAAGACAGGCCAGAAGAGACCUGGACAACAGCAGGCAACUUAGCAAAUGGAUCCGGAAGUCAGUGCGGAGGACCCUGGCUCCAGUGGGGGAGGACUGGGGACACACGCUACACACAUACACACAUAUGAGAACACACACAUACAUGUGAGAUGUGACACACACAUGUGAGAACACACAUACUGAGAACACACACACACACACACACACUCUUGCGGUCGCACUAGUGUGGAAUUCUCGGGUGUCAAGG is ___
*A* 2.54 R (bound/input frequency ratio)
